target: HIV-1 RT double mutant K103N/Y181C (Human immunodeficiency virus type 1 group M subtype B, UniProt P03366, K702N/Y780C); construct: HIV-1 wild type reverse transcriptase as well as the clinically significant double mutant K103N/Y181C; assay: biochemical
The compounds listed here are annotated with their IC50.

{"compound": "CCN1c2ncc(CCOc3ccc(C(=O)N(C)Cc4ccc(C(=O)O)cc4)cc3C)cc2C(=O)N(C)c2cccnc21 [Entry 3006]", "IC50": "50 to 100 nM"}
{"compound": "CCN1c2ncc(CCOc3ccc(S(=O)(=O)NCC(=O)O)cc3C)cc2C(=O)N(C)c2cccnc21 [Entry 4020]", "IC50": "< 50 nM"}
{"compound": "CCN1c2ncc(CCOc3ccc(N(CC(=O)O)C(C)=O)cc3C)cc2C(=O)N(C)c2cccnc21 [Entry 4002]", "IC50": "> 100 nM"}
{"compound": "CCN1c2ncc(CCOc3ccc(C(=O)Nc4ccc[n+]([O-])c4)cc3C)cc2C(=O)N(C)c2cccnc21 [Entry 3013]", "IC50": "< 50 nM"}
{"compound": "CCN1c2ncc(CCOc3ccc(C(=O)N(C)c4ccc(C(=O)O)cc4)cc3C)cc2C(=O)N(C)c2cccnc21 [Entry 3016]", "IC50": "50 to 100 nM"}
{"compound": "CCN1c2ncc(CCOc3ccc(NS(C)(=O)=O)cc3C)cc2C(=O)N(C)c2cccnc21 [Entry 4005]", "IC50": "< 50 nM"}
{"compound": "CCN1c2ncc(CCOc3ccc(NC(=O)CC(C)(C)C(=O)O)cc3C)cc2C(=O)N(C)c2cccnc21 [Entry 4008]", "IC50": "> 100 nM"}
{"compound": "CCN1c2ncc(CCOc3ccc(N(C)c4ccc(C(=O)O)cc4)cc3C)cc2C(=O)N(C)c2cccnc21 [Entry 3023]", "IC50": "50 to 100 nM"}
{"compound": "CCN1c2ncc(CCOc3ccc(C(=O)NC(C)(C)CC(=O)O)cc3C)cc2C(=O)N(C)c2cccnc21 [Entry 4017]", "IC50": "> 100 nM"}
{"compound": "CCN1c2ncc(CCOc3ccc(C(=O)Nc4ccc(C(=O)O)cn4)cc3C)cc2C(=O)N(C)c2cccnc21 [Entry 3014]", "IC50": "< 50 nM"}
{"compound": "CCN1c2ncc(CCOc3ccc(NC(=O)c4ccccc4C(=O)O)cc3C)cc2C(=O)N(C)c2cccnc21 [Entry 3033]", "IC50": "> 100 nM"}
{"compound": "CCN1c2ncc(CCOc3ccc(Nc4ccc(C(=O)O)cn4)cc3C)cc2C(=O)N(C)c2cccnc21 [Entry 3025]", "IC50": "< 50 nM"}
{"compound": "CCN1c2ncc(CCOc3ccc(C(=O)Nc4ccc(CC(=O)O)cc4)cc3C)cc2C(=O)Nc2c(C)ccnc21 [Entry 3018]", "IC50": "< 50 nM"}
{"compound": "CCN1c2ncc(CCOc3ccc(C(=O)Nc4nc(CC(=O)O)cs4)cc3C)cc2C(=O)N(C)c2cccnc21 [Entry 3007]", "IC50": "< 50 nM"}
{"compound": "CCN1c2ncc(CCOc3ccc(C(=O)Nc4ccccc4C(=O)O)cc3C)cc2C(=O)N(C)c2cccnc21 [Entry 3011]", "IC50": "> 100 nM"}

----------
target: HIV-1 RT double mutant K103N/Y181C (Human immunodeficiency virus type 1 group M subtype B, UniProt P03366, K702N/Y780C); construct: HIV-1 wild type reverse transcriptase as well as the clinically significant double mutant K103N/Y181C; assay: biochemical
measured.property: IC50

{"compound": "CCN1c2ncc(CCOc3ccc(NC(=O)NCC(=O)O)cc3C)cc2C(=O)N(C)c2cccnc21", "measured.property": "IC50", "reported.measurement": "> 100 nM"}
{"compound": "CCN1c2ncc(CCOc3ccc(NC(=O)/C=C/C(=O)O)cc3C)cc2C(=O)N(C)c2cccnc21", "measured.property": "IC50", "reported.measurement": "50 to 100 nM"}
{"compound": "CCN1c2ncc(CCOc3ccc(-c4ccncc4)cc3)cc2C(=O)N(C)c2cccnc21", "measured.property": "IC50", "reported.measurement": "50 to 100 nM"}
{"compound": "CCN1c2ncc(CCOc3ccc(-c4c[nH]cn4)cc3C)cc2C(=O)N(C)c2cccnc21", "measured.property": "IC50", "reported.measurement": "< 50 nM"}
{"compound": "CCN1c2ncc(CCOc3ccc(NC(=O)C4CC4C(=O)O)cc3C)cc2C(=O)N(C)c2cccnc21 (centres unmarked)", "measured.property": "IC50", "reported.measurement": "> 100 nM"}
{"compound": "CCN1c2ncc(CCOc3ccc(C(=O)NS(C)(=O)=O)cc3C)cc2C(=O)N(C)c2cccnc21", "measured.property": "IC50", "reported.measurement": "> 100 nM"}
{"compound": "CCN1c2ncc(CCOc3ccc(-c4cn(C)cn4)cc3C)cc2C(=O)N(C)c2cccnc21", "measured.property": "IC50", "reported.measurement": "< 50 nM"}
{"compound": "CCN1c2ncc(CCOc3ccc(-c4cc[n+]([O-])cc4)cc3)cc2C(=O)N(C)c2cccnc21", "measured.property": "IC50", "reported.measurement": "< 50 nM"}

----------
test system: HIV-1 wild type; assay: microbe, parasite or virus in culture; type: cell-based; conditions: Human immunodeficiency virus 1, read-out: EC50 WT RT (nM)
The molecules listed here are annotated with their EC50.

{"smi": "CCN1c2ncc(CCOc3ccc(Nc4cccc(CC(=O)O)c4)cc3C)cc2C(=O)N(C)c2cccnc21", "EC50": "< 10 nM"}
{"smi": "CCN1c2ncc(CCOc3ccc(NC(=O)Nc4ccc(C(=O)O)cc4)cc3C)cc2C(=O)N(C)c2cccnc21", "EC50": "10 to 50 nM"}
{"smi": "CCN1c2ncc(CCOc3ccc(-c4cccc(C(=O)O)c4)cc3C)cc2C(=O)N(C)c2cccnc21", "EC50": "< 10 nM"}
{"smi": "CCN1c2ncc(CCOc3ccc(NC(=O)c4ccc(C(=O)O)cc4)cc3C)cc2C(=O)N(C)c2cccnc21", "EC50": "10 to 50 nM"}

----------
The compounds listed here are annotated with their IC50.
molecular target: HIV-1 RT double mutant K103N/Y181C (Human immunodeficiency virus type 1 group M subtype B, UniProt P03366, K702N/Y780C); construct: HIV-1 wild type reverse transcriptase as well as the clinically significant double mutant K103N/Y181C; assay: biochemical; details: RT double mutant K103N/Y181C; read-out: IC50 K103N/Y181C

{"compound": "CCN1c2ncc(CCOc3ccc(-c4ccc(C)nc4)cc3C)cc2C(=O)N(C)c2cccnc21", "IC50": "< 50 nM"}
{"compound": "CCN1c2ncc(CCOc3ccc(-c4cc(C)ccn4)cc3C)cc2C(=O)N(C)c2cccnc21", "IC50": "< 50 nM"}
{"compound": "CCN1c2ncc(CCOc3ccc(-c4ccc(CC(=O)O)cc4)cc3C)cc2C(=O)Nc2c(C)ccnc21", "IC50": "< 50 nM"}
{"compound": "CCN1c2ncc(CCOc3ccc(-c4cscn4)cc3)cc2C(=O)N(C)c2cccnc21", "IC50": "> 100 nM"}
{"compound": "CCN1c2ncc(CCOc3ccc(-c4cc(Cl)c(C(=O)O)cc4F)cc3C)cc2C(=O)N(C)c2cccnc21", "IC50": "< 50 nM"}
{"compound": "CCN1c2ncc(CCOc3ccc(-c4ccc(CC(=O)O)cc4Cl)cc3C)cc2C(=O)N(C)c2cccnc21", "IC50": "< 50 nM"}
{"compound": "CCN1c2ncc(CCOc3ccc(-c4ccc(CCC(=O)O)o4)cc3)cc2C(=O)N(C)c2cccnc21", "IC50": "> 100 nM"}
{"compound": "CCN1c2ncc(CCOc3ccc(S(=O)(=O)Nc4ccc(C(=O)O)cc4)cc3C)cc2C(=O)N(C)c2cccnc21", "IC50": "< 50 nM"}
{"compound": "CCN1c2ncc(CCOc3ccc(-c4ccc(C(=O)O)cc4)cc3)cc2C(=O)N(C)c2cccnc21", "IC50": "50 to 100 nM"}
{"compound": "CCN1c2ncc(CCOc3ccc(-c4ccc(CC(=O)O)cc4)cc3)cc2C(=O)N(C)c2cccnc21", "IC50": "50 to 100 nM"}
{"compound": "CCN1c2ncc(CCOc3ccc(-c4ccc(C(=O)O)o4)cc3)cc2C(=O)N(C)c2cccnc21", "IC50": "50 to 100 nM"}
{"compound": "CCN1c2ncc(CCOc3ccc(-c4ccc(C)[n+]([O-])c4C)cc3C)cc2C(=O)N(C)c2cccnc21", "IC50": "< 50 nM"}
{"compound": "CCN1c2ncc(CCOc3ccc(-c4cc(C(=O)O)ccc4C)cc3C)cc2C(=O)N(C)c2cccnc21", "IC50": "> 100 nM"}
{"compound": "CCN1c2ncc(CCOc3ccc(-c4cc(C)cnc4N)cc3C)cc2C(=O)N(C)c2cccnc21", "IC50": "< 50 nM"}
{"compound": "CCN1c2ncc(CCOc3ccc(-c4ccc(CC(=O)O)c(C)c4)cc3C)cc2C(=O)N(C)c2cccnc21", "IC50": "< 50 nM"}
{"compound": "CCN1c2ncc(CCOc3ccc(-c4ccc(Cl)c(C(=O)O)c4)cc3C)cc2C(=O)N(C)c2cccnc21", "IC50": "50 to 100 nM"}
{"compound": "CCN1c2ncc(CCOc3ccc(-c4ccc(C(C)C(=O)O)cc4)cc3C)cc2C(=O)N(C)c2cccnc21 (stereo not drawn)", "IC50": "< 50 nM"}
{"compound": "CCN1c2ncccc2NC(=O)c2cc(CCOc3ccc(-c4ccc(CC(=O)O)cc4)cc3C)cnc21", "IC50": "50 to 100 nM"}
{"compound": "CCN1c2ncc(CCOc3ccc(-c4cccc(CC(=O)O)c4)cc3C)cc2C(=O)N(C)c2cccnc21", "IC50": "< 50 nM"}
{"compound": "CCN1c2ncc(CCOc3ccc(-c4cc(CC(=O)O)ccc4C)cc3C)cc2C(=O)N(C)c2cccnc21", "IC50": "50 to 100 nM"}
{"compound": "CCN1c2ncc(CCOc3ccc(-c4ccc(C(=O)O)cc4)cc3)cc2C(=O)N(C)c2ccc(Cl)nc21", "IC50": "< 50 nM"}
{"compound": "CCN1c2ncc(CCOc3ccc(-c4ccc(C(=O)O)cc4)c(Cl)c3)cc2C(=O)N(C)c2cccnc21", "IC50": "50 to 100 nM"}
{"compound": "Cc1cc(-c2ccc(CC(=O)O)cc2)ccc1OCCc1cnc2c(c1)C(=O)N(C)c1cccnc1N2", "IC50": "> 100 nM"}
{"compound": "CCN1c2ncc(CCOc3ccc(-c4ccc(C(=O)O)c(C)c4)cc3C)cc2C(=O)N(C)c2cccnc21", "IC50": "< 50 nM"}
{"compound": "CCN1c2ncc(CCOc3ccc(-c4cc(C(=O)O)ccc4F)cc3C)cc2C(=O)N(C)c2cccnc21", "IC50": "50 to 100 nM"}
{"compound": "CCN1c2ncc(CCOc3ccc(-c4ccc(C)cc4)cc3C)cc2C(=O)N(C)c2cccnc21", "IC50": "< 50 nM"}
{"compound": "CCN1c2ncc(CCOc3ccc(-c4ccnc(C)c4)cc3C)cc2C(=O)N(C)c2cccnc21", "IC50": "< 50 nM"}
{"compound": "CCN1c2ncc(CCOc3ccc(-c4ccc(C(=O)O)c(F)c4)cc3C)cc2C(=O)N(C)c2cccnc21", "IC50": "< 50 nM"}
{"compound": "CCN1c2ncc(CCOc3ccc(-c4ccc(F)c(CC(=O)O)c4)cc3C)cc2C(=O)N(C)c2cccnc21", "IC50": "< 50 nM"}
{"compound": "CCN1c2ncc(CCOc3ccc(-c4cc(C)nc(C)c4)cc3C)cc2C(=O)N(C)c2cccnc21", "IC50": "< 50 nM"}
